# experiment_description: Oral bioavailability in Sprague-Dawley rat at 5 mg/kg
# Type: ADME, organism-based
# test_settings: in vivo
parameter: bioavailability (%)

[[record]]
smiles_data = "Cl.O=C1COc2ccc(CNC34CCC(CCc5c(F)cnc6ccc(OCCCO)nc56)(CC3)OC4)nc2N1"
parameter = "bioavailability"
readout_value = 49


* * *

# Test system: Escherichia coli
# experiment_description: Antimicrobial activity against Escherichia coli ATCC 25922 by micro broth dilution or agar based method
# Format: functional
parameter: MIC (µg/mL)

[[record]]
compound = "O=C1COc2ccc(CNC34CCC(CCc5c(F)cnc6ccc(OCCc7cc(=O)c(O)c[nH]7)nc56)(CC3)OC4)nc2N1"
reading_unit = "µg/mL"
readout_value = 32

[[record]]
compound = "CC(C)(O)CCOc1ccc2ncc(F)c(CCC34CCC(NCc5ccc6c(n5)NC(=O)CO6)(CC3)CO4)c2n1"
reading_unit = "µg/mL"
readout_value = 16

[[record]]
compound = "O=C1COc2ccc(CNC34CCC(CCc5c(F)cnc6ccc(OCc7cc(=O)c(O)c[nH]7)nc56)(CC3)OC4)nc2N1"
reading_unit = "µg/mL"
readout_value = 16

[[record]]
compound = "CC(C)Oc1ccc2ncc(F)c(CCC34CCC(NCc5ccc6c(n5)NC(=O)CO6)(CC3)CO4)c2n1"
reading_unit = "µg/mL"
readout_value = 16

[[record]]
compound = "O=C1COc2ccc(CNC34CCC([C@@H](O)Cc5c(F)cnc6ccc(OCCCO)nc56)(CC3)OC4)nc2N1"
reading_unit = "µg/mL"
readout_value = 16

[[record]]
compound = "O=C1COc2ccc(CNC34CCC(CCc5c(F)cnc6ccc(OCC(O)CO)nc56)(CC3)OC4)nc2N1 (stereo not given)"
reading_unit = "µg/mL"
readout_value = 16

[[record]]
compound = "O=C1COc2ccc(CNC34CCC(CCc5c(F)cnc6ccc(OC[C@H]7C[C@@H](O)[C@@H](O)C7)nc56)(CC3)OC4)nc2N1"
reading_unit = "µg/mL"
readout_value = 8

[[record]]
compound = "CCOC(=O)COc1ccc2ncc(F)c(CCC34CCC(NCc5ccc6c(n5)NC(=O)CO6)(CC3)CO4)c2n1"
reading_unit = "µg/mL"
readout_value = 16

[[record]]
compound = "O=C(O)CCCCOc1ccc2ncc(F)c(CCC34CCC(NCc5ccc6c(n5)NC(=O)CO6)(CC3)CO4)c2n1"
reading_unit = "µg/mL"
readout_value = 16

[[record]]
compound = "O=C1COc2ccc(CNC34CCC(CCc5c(F)cnc6ccc(OC[C@H]7C[C@@H]7C(=O)O)nc56)(CC3)OC4)nc2N1"
reading_unit = "µg/mL"
readout_value = 16


* * *

# Tested on: Escherichia coli
# experiment_description: Antimicrobial activity against Escherichia coli ATCC 25922 by micro broth dilution or agar based method
# Type: functional
parameter: MIC (µg/mL)

[[record]]
compound = "N#CCCCOc1ccc2ncc(F)c(CCC34CCC(NCc5ccc6c(n5)NC(=O)CO6)(CC3)CO4)c2n1"
reading_unit = "µg/mL"
readout_value = 4

[[record]]
compound = "COC(=O)CCCCOc1ccc2ncc(F)c(CCC34CCC(NCc5ccc6c(n5)NC(=O)CO6)(CC3)CO4)c2n1"
reading_unit = "µg/mL"
readout_value = 4

[[record]]
compound = "N[C@H]1C(=O)N[C@@H]1COc1ccc2ncc(F)c(CCC34CCC(NCc5ccc6c(n5)NC(=O)CO6)(CC3)CO4)c2n1"
reading_unit = "µg/mL"
readout_value = 16

[[record]]
compound = "COC(=O)[C@H]1C[C@@H]1COc1ccc2ncc(F)c(CCC34CCC(NCc5ccc6c(n5)NC(=O)CO6)(CC3)CO4)c2n1 (relative stereo)"
reading_unit = "µg/mL"
readout_value = 16

[[record]]
compound = "N#CC1(COc2ccc3ncc(F)c(CCC45CCC(NCc6ccc7c(n6)NC(=O)CO7)(CC4)CO5)c3n2)CC1"
reading_unit = "µg/mL"
readout_value = 16

[[record]]
compound = "O=C1COc2ccc(CNC34CCC(CCc5c(F)cnc6ccc(OCCOCCO)nc56)(CC3)OC4)nc2N1"
reading_unit = "µg/mL"
readout_value = 32


Where do the numbers come from? From ChEMBL document CHEMBL3603744.
